- Tgt: Tyrosine-protein kinase ZAP-70 (Homo sapiens)
- Sequence (whole entry): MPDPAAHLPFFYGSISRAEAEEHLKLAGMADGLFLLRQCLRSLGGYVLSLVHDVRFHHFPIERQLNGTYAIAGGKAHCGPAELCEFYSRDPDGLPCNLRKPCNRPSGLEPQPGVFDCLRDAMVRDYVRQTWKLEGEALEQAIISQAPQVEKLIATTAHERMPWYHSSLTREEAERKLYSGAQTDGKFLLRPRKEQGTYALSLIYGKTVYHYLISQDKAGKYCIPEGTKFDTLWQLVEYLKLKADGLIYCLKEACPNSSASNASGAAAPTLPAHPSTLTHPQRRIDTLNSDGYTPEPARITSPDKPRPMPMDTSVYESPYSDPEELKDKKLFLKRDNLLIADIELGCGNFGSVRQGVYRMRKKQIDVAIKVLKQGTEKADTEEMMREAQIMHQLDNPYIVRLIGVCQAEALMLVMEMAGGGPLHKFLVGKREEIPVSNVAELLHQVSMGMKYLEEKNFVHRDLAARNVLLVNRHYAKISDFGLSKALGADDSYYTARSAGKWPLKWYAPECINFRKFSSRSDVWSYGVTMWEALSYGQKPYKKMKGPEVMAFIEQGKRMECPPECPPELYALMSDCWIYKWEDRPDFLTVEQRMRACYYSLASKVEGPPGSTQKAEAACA
- Experimental setup: at 1 µM
- Description: GSK_PKIS: ZAP70 mean inhibition at 1 uM [Nanosyn]
Assay endpoint: inhibition
Put your answer as a value accompanied by its unit after it.

Answered examples (2):
INSERT INTO results (molecule, observed) VALUES
  ('CNC(=O)c1cncc(/C=C/c2c(Cl)cccc2Cl)c1', '1.58%'),
  ('COc1cccc(-n2ncc3c(N/N=C/c4cccc(F)c4)ncnc32)c1', '-0.02%');

For every item in the list below, what is its measured inhibition?
1. O=C1NC(=O)C(N2CCc3ccccc32)=C1c1ccc(Cl)cc1
2. CC1=C(C(=O)Nc2ccc3[nH]ncc3c2)C(c2ccc(Cl)c(Cl)c2)CC(=O)N1 (stereo not given)
3. CC(C)=Cc1cccc2c1/C(=N/Nc1ccc(S(N)(=O)=O)cc1)C(=O)N2

Reply |
["4.58%", "2.3%", "4.98%"]
